Listed here: items and their measured Summer wheat observed (%).
test system: crop plants (cereal); test: Container trials with cereal in the greenhouse, mefenpyr 1 day prior to herbicide application (Example B, use of safeners); type: in vivo; details: 10 days after application; 25 g of a.i./ha; without safener
Quick reminder: number only, in %, skip the unit.

Some compounds with known Summer wheat observed (%) results, for comparison:
CCc1cc(C)cc(CC)c1C1=C(OC(=O)COC)C2(CCCCC2)CC1=O	15
CCOC(=O)OC1=C(c2c(CC)cc(C)cc2CC)C(=O)C2CCCCC12 (centres unmarked)	50
CCc1cc(CC)c(C2=C(OC(=O)COC)C3CCCCC3C2=O)c(CC)c1 (centres unmarked)	40
CCc1cc(C)cc(CC)c1C1=C(OC(=O)C(C)C)[C@H]2CCCC[C@H]2C1=O (relative stereo)	40
CCC(=O)OC1=C(c2c(CC)cc(C)cc2CC)C(=O)C2CCCCC12 (centres unmarked)	20

Ask: Item CCc1cc(C)cc(CC)c1C1=C(O)C2CC3OC(C)(C)OC3CC2C1=O (mixture of isomers) has what recorded Summer wheat observed (%)?
Reply: 50

Ask: Item CCc1cc(C)cc(CC)c1C1=C(OC(=O)C(C)(C)C)[C@H]2CCCC[C@H]2C1=O (relative stereo) has what recorded Summer wheat observed (%)?
Reply: 30

Ask: Item CCc1cc(C)cc(C)c1C1=C(OC(=O)C(C)C)C2CCCCC2C1=O (centres unmarked) has what recorded Summer wheat observed (%)?
Reply: 20
